Each recorded value in this set is attributed to ChEMBL document CHEMBL1201862.

tested on: SF-295; experiment: NCI tumour cell line growth inhibition, 48 h
Active and inactive are the calls of the source. No stated cut-off is given here; in the data, active = GI50 up to about 1.1 µM and inactive = higher.
Catalogue of compounds with associated GI50

Solved entries (count: 10):
| compound | targetSystem | GI50 |
| --- | --- | --- |
| O=c1[nH]c(Br)nc2[nH]nnc12 | SF-295 | 72.8 µM (inactive) |
| CC(=O)Nc1ccc2c3c(cc(O)c2c1)N(C(=O)CCCCC(=O)Nc1ccc2c4c(cc(O)c2c1)N(C(=O)OC(C)(C)C)CC4CCl)CC3CCl (stereo not drawn) | SF-295 | 4.66 µM (inactive) |
| COc1cc(/C=C2\C(=O)N(c3cccc(NC(C)=O)c3)C(c3ccccc3)S2(=O)=O)cc(OC)c1OC (stereo not drawn) | SF-295 | 50.9 µM (inactive) |
| Cc1ccc(/N=N/C(=N\NC(=O)c2ccc(C)cc2)c2ccc(N(CCC#N)CCC#N)cc2C)cc1 | SF-295 | 38.4 µM (inactive) |
| O=C1CCCc2cc3c(cc21)CC1(C3)Cc2ccc3c(c2C1)C(=O)CCC3 (stereo not drawn) | SF-295 | 18.5 µM (inactive) |
| COc1ccc(C(=O)/C=C/c2ccc(OCC(=O)N3CCN(c4ccccc4)CC3)cc2)cc1 | SF-295 | 32.6 µM (inactive) |
| COc1nc2c(c(O)c(C)c(=O)n2OC2OC(COC(C)=O)C(OC(C)=O)C(OC(C)=O)C2OC(C)=O)c(=O)n1C (stereo not drawn) | SF-295 | > 100 µM (inactive) |
| CN(C)CCOc1ccc2[nH]c(C(=O)N3CC(CCl)c4c3cc(NC(=O)OCc3ccc([N+](=O)[O-])cc3)c3ccccc43)cc2c1 (stereo not drawn) | SF-295 | 1.6 µM (inactive) |
| COc1ccc(C2SC(=N)Nc3c2c(C)nn3C(=O)Cc2ccccc2)cc1 (stereo not drawn) | SF-295 | > 100 µM (inactive) |
| CCCCCC(O)[C@H]1C(=O)C[C@@H](O[Si](C)(C)C(C)(C)C)[C@@H]1/C=C/CCOCc1ccccc1 (stereo partly drawn) | SF-295 | 2.39 µM (inactive) |

Ask: Which GI50 is listed for `Cc1c(O)c(=O)ccn1CCc1c[nH]c2ccccc12` ?
Result: 3.93 µM (inactive)

Ask: Request: `C[C@H](CCC(=O)O)[C@H]1CC[C@H]2[C@@H]3[C@@H](O)C[C@@H]4C[C@H](O)CC[C@]4(C)[C@H]3CC[C@]12C`
Result: 53.6 µM (inactive)

---

tested on: SNB-75; assay: NCI tumour cell line growth inhibition, 48 h
Activity calls are given as the source filed them. No stated cut-off is given here; in the data, active = GI50 up to about 1.1 µM and inactive = higher.
Reply using exactly one outcome from YES (active), NO (inactive)

Check out these entries, answers already filled in.
| compound | group |
| --- | --- |
| CCOC(=O)C(NC(=O)Nc1ccc(Cl)c(Cl)c1)C(F)(F)F (stereo not drawn) | NO |
| CN(C)CCCNc1c2c(=O)n(C)c(=O)nc-2n(C)c2ccccc12 | NO |

Ask: Assay outcome for `Nc1cnc(Nc2cccc3ccccc23)o1` : what was it?
Result: NO

Ask: Request: `C=C(C)[C@H]1C=C[C@@H](OC(C)=O)[C@@]2(COC(C)=O)[C@H](OC(=O)CCC)[C@H]3[C@@H](OC(C)=O)[C@@H](C)C[C@]3(O)C(=O)[C@@](C)(OC(C)=O)[C@H]12`
Result: NO

Ask: Request: `C=CCOc1cc(NC(=S)c2ccoc2C)ccc1OC`
Result: NO

Ask: Request: `CN(C)P(=O)(/C(N)=N/Nc1ccc([N+](=O)[O-])cc1)N(C)C`
Result: NO

Ask: Request: `O=C(c1ccccc1)c1c(CNCc2ccccc2)n(C(=O)c2ccccc2)c2ccccc12`
Result: NO

Ask: Request: Cc1ccccc1C1OC(=O)c2ccccc21 (stereo not drawn)
Result: NO

Ask: Request: `Nc1ncc(Sc2ccccc2C(=O)O)s1`
Result: NO

Ask: Request: c1ccc2c(c1)CCCC/C2=N/OCC1CO1 (stereo not drawn)
Result: NO

---

test system: SN12C; assay: NCI tumour cell line growth inhibition, 48 h
Active and inactive are the calls of the source. Rule as the data show it: active = GI50 up to about 1.1 µM and inactive = higher.
measuredEndpoint: GI50

Ask: Which GI50 is listed for `COc1cc(OCc2nc3ccccc3n3cccc23)cc(OC)c1OC` ?
Result: 47 µM (inactive)

---

system: A549; assay: NCI tumour cell line growth inhibition, 48 h
Active and inactive are the calls of the source. Cut-off read from the data, not from the text of the source: active = GI50 up to about 1.1 µM and inactive = higher.
Reply using exactly one outcome from active, inactive

Ask: Assay outcome for `Cc1cccc2c1C(=O)[C@](C)([C@]1(C)Nc3cccc(C)c3C1=O)N2` : what was it?
Result: inactive

Ask: Request: `CC1=NN(C(=O)c2ccccc2O)C(=O)/C1=C/c1cccc(O)c1`
Result: active

Ask: Request: C[C@]12CC(C#N)C(=O)C(O)=C1CC[C@@H]1C2CC[C@@]2(C)C1CC[C@@H]2O (stereo not given in full)
Result: inactive

Ask: Request: `CCCC#CCOC(=O)c1cc([N+](=O)[O-])cc([N+](=O)[O-])c1`
Result: inactive

Ask: Request: `COc1c(O)ccc(/C=N/NC(=S)NCOCCOC(C)=O)c1OC`
Result: inactive

Ask: Request: COc1cc2c(cc1O)C1Cc3ccc(OC)c(O)c3C[N+]1(C)CC2 (stereo not given)
Result: inactive

Ask: Request: `COc1ccc(/C=C2\CCCc3ccccc3C2=O)cc1`
Result: active

---

tested on: SF-268; experiment: NCI tumour cell line growth inhibition, 48 h
Activity calls are given as the source filed them. No stated cut-off is given here; in the data, active = GI50 up to about 1.1 µM and inactive = higher. *1 amine or outer side, *2 acyl side, *3 side chain or, on linkers, in order; H or OH if unused. Where a SMILES comes first, the peptide text is derived from it. Bridges are numbered along the chain shown (N, C = ends). Roman numbers before positions name the chains, in order. [ ]: non-standard residue; d: D form. Actinocin(9to1) = Cc1c2oc3c(C)ccc(C(=O)[*:1])c3nc-2c(C(=O)[*:2])c(N)c1=O; NMeV = CN[CH](C(=O)O)C(C)C; Sar = CNCC(=O)O
Reply using exactly one outcome from active, inactive

| molecule | group |
| --- | --- |
| COc1cccc(Nc2nc(N)nc(N)c2N=O)c1 | inactive |
| O=c1c2nc[nH]c2n(-c2ccccc2)c(=S)n1-c1ccccc1 | inactive |
| Cc1cc(Cl)ccc1NC(=O)C1C(=O)N(c2ccc(Cl)cc2C)C(=O)/C1=N\NC(N)=S (stereo not given) | inactive |
| CCN(CC)C(=O)Cn1c(C)cc2ccccc21 | inactive |
| CC(C)(C)Nc1noc(=O)n1C(C)(C)C | inactive |

Ask: Assay outcome for `CN(C)CCNC(=O)c1ccc(Cl)c2c(Nc3ccc(S(N)(=O)=O)cc3)c3ccccc3nc12` : what was it?
Result: inactive

Ask: Request: N=C1OC(c2ccc3c(c2)OCO3)C(NNS(=O)(=O)c2ccccc2)=C1O (stereo not given)
Result: inactive

Ask: Request: COC(=O)[C@@]12OC[C@]34C([C@@H](O)C1O)[C@@]1(C)CC(=O)C(OC(=O)CC(C)C(F)(F)F)=C(C)C1C[C@H]3OC(=O)[C@H](O)[C@H]42 (stereo not given in full)
Result: inactive

Ask: Request: N=C1NC2(O)C(=O)c3ccccc3C2(O)N1 (stereo not given)
Result: inactive

Ask: Request: CC1CN=C(N(C(=O)Nc2ccccc2)C2CCCCC2)S1 (stereo not given)
Result: inactive

Ask: Request: `O=C(c1cccs1)N(C(=S)N1CCN(c2ccccn2)CC1)c1ccccc1`
Result: inactive

Ask: Request: Cc1c2oc3c(C)ccc(C(=O)NC4C(=O)NC(C(C)C)C(=O)N5CCCC5C(=O)N(C)CC(=O)N(C)C(C(C)C)C(=O)OC4C)c3nc-2c(C(=O)NC2C(=O)NC(C(C)C)C(=O)N3CCCC3C(=O)N(C)CC(=O)N(C)C(C(C)C)C(=O)OC2C)c(N)c1=O (stereo not given) (I: TVP[Sar][NMeV] / II: TVP[Sar][NMeV]; ester I:1-I:C, II:1-II:C; linker I:N-II:N via Actinocin(9to1); configuration not given here)
Result: active

Ask: Request: COc1ccc(/C=C2\CCC(C)(CN(C)C)C2=O)cc1 (stereo not given)
Result: inactive

Ask: Request: `FC(F)(F)c1ccc(Cc2nc3cc4ccccc4cc3[nH]2)cc1`
Result: inactive

Ask: Request: `COc1ccc(Cc2c(N)[nH]c(=O)[nH]c2=O)cc1`
Result: inactive

---

Catalogue of molecules with associated GI50
test system: TK-10; assay: NCI tumour cell line growth inhibition, 48 h
The source made the active and inactive calls. No stated cut-off is given here; in the data, active = GI50 up to about 1.1 µM and inactive = higher.

Solved entries (count: 5):
| molecule | measuredEndpoint | observed |
| --- | --- | --- |
| O=C(c1ccc(Cl)cc1)N(C(=S)N1CCN(c2ccccn2)CC1)c1ccccc1 | GI50 | > 100 µM (inactive) |
| CCCC#CCOC(=O)c1cc([N+](=O)[O-])cc([N+](=O)[O-])c1 | GI50 | > 100 µM (inactive) |
| O=C1NC(=S)NC(=O)C1=Cc1cccc2cc3ccccc3cc12 | GI50 | 1.89 µM (inactive) |
| CCOC(C)C(/C=N/NC(N)=S)=NNC(N)=S (configuration not stated) | GI50 | > 100 µM (inactive) |
| C/C(=N\C1CCCCC1)c1ccccc1O | GI50 | > 100 µM (inactive) |

Ask: Which GI50 is listed for O=C(CCN1CCN(c2ccccc2)CC1)N1CCc2c([nH]c3ccccc23)C1c1cccnc1 (configuration not stated) ?
Result: 5.81 µM (inactive)

Ask: Request: C#CCOC(=O)C(N)CC(N)=O (configuration not stated)
Result: > 100 µM (inactive)

Ask: Request: `O=C1c2ccccc2C(=O)N1/N=C1/SC(=N\c2ccccc2)/C(=N/c2ccccc2)N1c1ccccc1`
Result: > 58.5 µM (inactive)
